Hello, the source for this data is patent US6051589A, in case you need it.

protocol: partition coefficient log p (octanol/water)
Type: physicochemical
run-parameters: pH: 7.4, read-out: partition coefficient log p (octanol/water)
measure-name: logD
// keep it numeric: no unit symbol after the value

Q. So what's the measured logD for this one? CC(C)(C)c1ccc(C2COC(c3c(F)c(F)cc(F)c3F)=N2)cc1 (stereo not shown)
A. 4.7

----------
protocol: partition coefficient log p (octanol/water)
Assay type: physicochemical
run-parameters: pH 7.5, read-out: log p
Measured logD values are reported for all entries that follow.
Keep it simple and answer with nothing but the number.

Example entries begin here.
{"compound": "CC(C)(C)c1ccc(C2COC(c3cc(F)c(F)cc3F)=N2)cc1 (stereo not shown)", "measure-name": "logD", "experimental-value": 4.78}
{"compound": "CC(C)Cc1ccc(C2COC(c3c(F)c(F)cc(F)c3F)=N2)cc1 (stereo not shown)", "measure-name": "logD", "experimental-value": 5.35}
{"compound": "CC(C)(C)c1ccc(C2COC(c3c(F)cc(F)cc3F)=N2)cc1 (stereo not shown)", "measure-name": "logD", "experimental-value": 4.43}

With those in mind, consider the next compound.
Q. Reported logD for CC(C)(C)c1ccc(C2COC(c3c(F)c(F)c(F)c(F)c3F)=N2)cc1 (stereo not shown) : what is it?
A. 5.12

----------
protocol: partition coefficient log p (octanol/water)
Format: physicochemical
run-parameters: pH 7.5, read-out: log p
measure-name: logD

Recorded logD, per entry:
{"molecule": "COc1c(F)cc(F)c(F)c1C1=NC(c2ccc(C(C)(C)C)cc2)CO1 (stereo not drawn)", "logD": 4.59}
{"molecule": "CC(C)(C)c1ccc(C2COC(c3cc(F)c(Cl)cc3Cl)=N2)cc1 (stereo not drawn)", "logD": 5.65}
{"molecule": "Cc1ccc(C2COC(c3c(F)c(F)cc(F)c3F)=N2)cc1 (stereo not drawn)", "logD": 3.69}
{"molecule": "CC(C)(C)c1ccc(C2COC(c3c(F)cc(C(F)(F)F)cc3F)=N2)cc1 (stereo not drawn)", "logD": 5.13}
{"molecule": "CC(C)(C)c1ccc(C2COC(c3c(F)ccc(F)c3F)=N2)cc1 (stereo not drawn)", "logD": 4.45}

Consider now this further molecule.
Q. Return reported logD; argument: CC(C)(C)c1ccc(C2COC(c3cc(F)c(F)c(F)c3F)=N2)cc1 (stereo not drawn)
A. 4.78
